Tested on: M. tuberculosis H37Rv
PROTOCOL_DESCRIPTION: MIC vs. M. tuberculosis H37Rv, microplate Alamar Blue assay (MABA)
Format: cell-based
CONDITION_SET: result in words

MOLECULE	TARGET	anti-TB activity / MIC in words
CC[C@H]1OC(=O)[C@@](C)(F)C(=O)[C@H](C)[C@@H](O[C@@H]2O[C@H](C)C[C@H](N(C)C)[C@H]2O)[C@](C)(OCC#Cc2cc(-c3cnc4ccccc4c3)no2)C[C@@H](C)C(=O)[C@H](C)[C@H]2NC(=O)O[C@@]21C [Compound A323348]	M. tuberculosis H37Rv	very low
CC[C@H]1OC(=O)[C@H](C)[C@@H](O[C@H]2C[C@@](C)(OC)[C@@H](O)[C@H](C)O2)[C@H](C)[C@@H](O[C@@H]2O[C@H](C)C[C@H](N(C)C)[C@H]2O)[C@](C)(OC)C[C@@H](C)C(=O)[C@H](C)[C@H]2N(CCCCn3cnc(-c4cccnc4)c3)C(=O)O[C@]12C [RU69874]	M. tuberculosis H37Rv	very low
CC[C@H]1OC(=O)[C@H](C)C(OC2CC(C)(OC)[C@@H](O)[C@H](C)O2)[C@H](C)[C@@H](O[C@@H]2O[C@H](C)C[C@H](N(C)C)[C@H]2O)[C@](C)(OC)C[C@@H](C)C(=O)[C@H](C)[C@H]2N(NCCCc3ccnc4ccccc34)C(=O)O[C@]12C (some centres unmarked) [RU66252]	M. tuberculosis H37Rv	very low
